biological target: HLA-A*68:02; assay: IEDB peptide-MHC binding, cellular MHC/competitive/fluorescence; bounds were set here for any values at or beyond the usual limits of such assays; conditions: source organism: Vaccinia virus WR
Param label: returns Satisfied when IC50 < 8 µM, returns Not satisfied otherwise, including exact equality.

[ask] Bench note: check whether GANGSTAEQL shows IC50 below 8 µM
[reply] Not satisfied

[ask] Bench note: check whether QLYTISSESL shows IC50 below 8 µM
[reply] Satisfied

[ask] Bench note: check whether VVYHDDDNTT shows IC50 below 8 µM
[reply] Not satisfied

[ask] Bench note: check whether LQQNNSFII shows IC50 below 8 µM
[reply] Not satisfied

[ask] Bench note: check whether DMLLNVQTL shows IC50 below 8 µM
[reply] Satisfied

[ask] Bench note: check whether SALMTLDDL shows IC50 below 8 µM
[reply] Satisfied

[ask] Bench note: check whether AMIHKTYIDV shows IC50 below 8 µM
[reply] Not satisfied

[ask] Bench note: check whether IAGIILLIL shows IC50 below 8 µM
[reply] Not satisfied

[ask] Bench note: check whether VLLPFYETL shows IC50 below 8 µM
[reply] Not satisfied

---

biological target: HLA-A*02:01; assay: IEDB peptide-MHC binding, purified MHC/competitive/radioactivity; bounds were set here for any values at or beyond the usual limits of such assays; settings: source organism: Vaccinia virus WR
Provide the reported IC50 of each item.
Numbers only here, please. The scale is nM.

[ask] Identify measured IC50 corresponding to IMSMMNITRL
[reply] 284

[ask] Identify measured IC50 corresponding to VLLPFYETL
[reply] 7.2

[ask] Identify measured IC50 corresponding to DVFRPLFDFV
[reply] 1650

[ask] Identify measured IC50 corresponding to SIKMIYDLNA
[reply] 1780

[ask] Identify measured IC50 corresponding to YMSNLFDIPL
[reply] 18

[ask] Identify measured IC50 corresponding to GLLDSIKMI
[reply] 15

[ask] Identify measured IC50 corresponding to IIFGESSIFV
[reply] 1.3

[ask] Identify measured IC50 corresponding to RIKSVLDII
[reply] 4700

---

biological target: HLA-A*02:01; assay: IEDB peptide-MHC binding, purified MHC/competitive/radioactivity; bounds were set here for any values at or beyond the usual limits of such assays; details: source organism: Vaccinia virus WR
Provide the reported pIC50 of each item.
Scale explanation: pIC50 corresponds to minus log10 of a concentration expressed in moles per litre.

[ask] Identify measured pIC50 corresponding to RLKSSQTIEL
[reply] 6.47

[ask] Identify measured pIC50 corresponding to LILSLTCSV
[reply] 8.89

[ask] Identify measured pIC50 corresponding to FLTSVINRV
[reply] 8.60

---

biological target: HLA-A*02:01; assay: IEDB peptide-MHC binding, cellular MHC/competitive/fluorescence; bounds were set here for any values at or beyond the usual limits of such assays; settings: source organism: Vaccinia virus WR
Provide the reported pIC50 of each item.
Scale explanation: pIC50 corresponds to minus log10 of a concentration expressed in moles per litre.

[ask] Identify measured pIC50 corresponding to HLLISFDST
[reply] 4.55

[ask] Identify measured pIC50 corresponding to GALYLGHSA
[reply] 4.65

[ask] Identify measured pIC50 corresponding to DTCLLAISA
[reply] 5.17

[ask] Identify measured pIC50 corresponding to LAEHISDSI
[reply] 5.22

[ask] Identify measured pIC50 corresponding to VAVAAASST
[reply] 4.87

[ask] Identify measured pIC50 corresponding to TTTSEVVDM
[reply] 5.00

[ask] Identify measured pIC50 corresponding to RVTKRDESSI
[reply] 4.25

[ask] Identify measured pIC50 corresponding to IQQLYEFRKV
[reply] 5.06

[ask] Identify measured pIC50 corresponding to DAKRNSKSLV
[reply] 4.52

[ask] Identify measured pIC50 corresponding to LANERYRSA
[reply] 4.31

[ask] Identify measured pIC50 corresponding to TQSGALEVLM
[reply] 4.97

[ask] Identify measured pIC50 corresponding to KQNKFGDSPL
[reply] 5.26

[ask] Identify measured pIC50 corresponding to TVDFTDCRTI
[reply] 4.53

[ask] Identify measured pIC50 corresponding to NTIDQTANVV
[reply] 5.18

[ask] Identify measured pIC50 corresponding to FVKKMLPKII
[reply] 4.48

[ask] Identify measured pIC50 corresponding to IAFSSGTVI
[reply] 4.36

[ask] Identify measured pIC50 corresponding to VATFRDMLL
[reply] 5.05

[ask] Identify measured pIC50 corresponding to TLTGSPSST
[reply] 4.54

[ask] Identify measured pIC50 corresponding to TIKCSNLCT
[reply] 5.06

[ask] Identify measured pIC50 corresponding to IQKSSSIDV
[reply] 4.80

[ask] Identify measured pIC50 corresponding to TLSLSKQDI
[reply] 4.93

[ask] Identify measured pIC50 corresponding to CLKNEGVSGL
[reply] 5.20

[ask] Identify measured pIC50 corresponding to GVPHSVFIA
[reply] 5.27

[ask] Identify measured pIC50 corresponding to SVDAMIHKT
[reply] 4.62

[ask] Identify measured pIC50 corresponding to ELTASGGKV
[reply] 4.30

[ask] Identify measured pIC50 corresponding to VTINNLKMM
[reply] 5.04

[ask] Identify measured pIC50 corresponding to IADIRDKYM
[reply] 4.95

[ask] Identify measured pIC50 corresponding to WLTAVEHIPT
[reply] 5.16

[ask] Identify measured pIC50 corresponding to DINSDNSNI
[reply] 4.60

[ask] Identify measured pIC50 corresponding to ATDPDADAI
[reply] 4.41

[ask] Identify measured pIC50 corresponding to QQALSSFHTT
[reply] 4.54

[ask] Identify measured pIC50 corresponding to CVDIFTEGKI
[reply] 4.36

[ask] Identify measured pIC50 corresponding to STVDVRNIV
[reply] 5.09

[ask] Identify measured pIC50 corresponding to LIISTDQDT
[reply] 4.52

[ask] Identify measured pIC50 corresponding to QQKKCKYCI
[reply] 4.41

[ask] Identify measured pIC50 corresponding to KTLDFKSKKV
[reply] 4.28

[ask] Identify measured pIC50 corresponding to TASSDSLQT
[reply] 4.26

[ask] Identify measured pIC50 corresponding to ITHTNITTLL
[reply] 4.93

[ask] Identify measured pIC50 corresponding to GVLPEETNI
[reply] 4.76

[ask] Identify measured pIC50 corresponding to WLTPFEKEFT
[reply] 4.80

[ask] Identify measured pIC50 corresponding to PTMNNAKLT
[reply] 4.70

[ask] Identify measured pIC50 corresponding to PTASSDSLQT
[reply] 4.78

[ask] Identify measured pIC50 corresponding to SASDMQKFTI
[reply] 4.87

[ask] Identify measured pIC50 corresponding to LMSDNPKAST
[reply] 5.05

[ask] Identify measured pIC50 corresponding to LTDVEKRIL
[reply] 4.57

[ask] Identify measured pIC50 corresponding to IVTLQKVLHV
[reply] 4.48

[ask] Identify measured pIC50 corresponding to ELEKCTSEI
[reply] 4.61

[ask] Identify measured pIC50 corresponding to LLVATDPDA
[reply] 4.76

[ask] Identify measured pIC50 corresponding to SVEPYTSNI
[reply] 4.76

[ask] Identify measured pIC50 corresponding to STAEQLSKYV
[reply] 5.09

[ask] Identify measured pIC50 corresponding to LTSVDIETA
[reply] 4.62

[ask] Identify measured pIC50 corresponding to IVRLNQCMSA
[reply] 5.13

[ask] Identify measured pIC50 corresponding to ELPYVGDTSM
[reply] 4.87

[ask] Identify measured pIC50 corresponding to DIDLLFNEKL
[reply] 5.24

[ask] Identify measured pIC50 corresponding to LTGSQYYFSM
[reply] 5.30

[ask] Identify measured pIC50 corresponding to PINAPIKTFM
[reply] 5.12

[ask] Identify measured pIC50 corresponding to VMDKNHAIFT
[reply] 5.06

[ask] Identify measured pIC50 corresponding to FVNFNSVKNL
[reply] 5.06

[ask] Identify measured pIC50 corresponding to KLISEKETL
[reply] 4.99

[ask] Identify measured pIC50 corresponding to EQTSVFSAT
[reply] 4.77

---

target: HLA-A*02:01; assay: IEDB peptide-MHC binding, purified MHC/competitive/radioactivity; bounds were set here for any values at or beyond the usual limits of such assays; conditions: source organism: Hepacivirus hominis
REPORTED_PROPERTY: log10 of IC50 (log10 of the value in nM)
The common logarithm of IC50 in nM is what is listed.

[ask] Identify measured log10 of IC50 corresponding to ILMTHFFSI
[reply] 0.11

[ask] Identify measured log10 of IC50 corresponding to KLLPQLPGV
[reply] 0.23

[ask] Identify measured log10 of IC50 corresponding to FMRDEVSFSV
[reply] 0.60

[ask] Identify measured log10 of IC50 corresponding to MLVNGDDLVV
[reply] 1.75

[ask] Identify measured log10 of IC50 corresponding to RLLDLSSWFT
[reply] 1.30

[ask] Identify measured log10 of IC50 corresponding to SLMAFTASI
[reply] 2.03

[ask] Identify measured log10 of IC50 corresponding to GLLLLCVGV
[reply] 1.63

[ask] Identify measured log10 of IC50 corresponding to GLLGCIITSL
[reply] 1.18

[ask] Identify measured log10 of IC50 corresponding to MVLMTHFFSV
[reply] 2.16

[ask] Identify measured log10 of IC50 corresponding to VLMTHFFSV
[reply] 0.28

[ask] Identify measured log10 of IC50 corresponding to TLLGCWSFVL
[reply] 1.23

[ask] Identify measured log10 of IC50 corresponding to ILLSRCLWWT
[reply] 2.47

[ask] Identify measured log10 of IC50 corresponding to KLLIAILGPL
[reply] 1.83

[ask] Identify measured log10 of IC50 corresponding to MLVCGDDLVV
[reply] 1.99

[ask] Identify measured log10 of IC50 corresponding to SMGNTLTCYV
[reply] 2.00

[ask] Identify measured log10 of IC50 corresponding to MILMTHFFSI
[reply] 2.43

[ask] Identify measured log10 of IC50 corresponding to TSISGVLWTV
[reply] 1.41

[ask] Identify measured log10 of IC50 corresponding to VLAGYGAGI
[reply] 2.61

[ask] Identify measured log10 of IC50 corresponding to FLLALLSCL
[reply] 0.45

[ask] Identify measured log10 of IC50 corresponding to LLSCISVPV
[reply] 0.40

[ask] Identify measured log10 of IC50 corresponding to ILMTHFFSIL
[reply] 1.64
